Test system: OVCAR-5 ovarian
protocol: NCI tumour cell line growth inhibition, 48 h; in the data active means GI50 below about 0.43 µM; inactive means the rest
Write down one outcome, taken from Y (active), N (inactive)

Recorded results for 10 compounds are shown here.
- Cc1[nH]c(/C=C2\C(=O)Nc3ccccc32)c(C)c1CCC(=O)O: N
- COCC1(CO)C(=O)C2CCN1CC2 (stereo unspecified): N
- NC(=O)c1cc(S(=O)(=O)Nc2nnc(-c3ccccc3)c(-c3ccccc3)n2)c(SCc2ccccc2)cc1Cl: N
- C1=C\COCc2cc(ccc2OCCN2CCCC2)Nc2nccc(n2)-c2cccc(c2)COC/1: N
- O=S(=O)(Nc1ccc(F)cc1F)c1ccc(-c2cnc(C3CC3)o2)cc1: N
- COc1ccc(-n2c(C)cc(-c3ccccc3)c2C)cc1: N
- CN(CCO)c1ccc(N2Cc3ccccc3OC3=C2C(=O)c2c(O)ccc(O)c2C3=O)cn1: Y
- O=C(Nc1ccc(-n2ccc3c(NC(=O)c4ccccc4)nccc32)cc1)Nc1ccc(Cl)c(Cl)c1: N
- COc1ccc(-c2ccc(-c3ccc(C(=N)N)s3)s2)cc1: Y
- CC(C)(S)C(N)C(=O)O (stereo unspecified): N

Task: Each compound tested received a call. Report the one for `CSc1ccc2c(c1)C(=O)c1c-2n(CCCBr)c(=O)c2cc([N+](=O)[O-])ccc12` .
Result: N

Task: What outcome does the record of this test show for N#CC1=C(N)Oc2cc(O)ccc2C1c1cccc2ccccc12 (stereo unspecified) ?
Result: N

Task: Recorded test outcome, item `NC(=O)OCCn1cc(-c2nc(-c3c[nH]c4ncccc34)cs2)c2ccccc21`
Result: N

Task: Dear all, I need the recorded test outcome for `O[C@H](c1cc(C(F)(F)F)nc2c(C(F)(F)F)cccc12)[C@@H]1CCCCN1` , thank you.
Result: N

Task: Hello, I am checking results. What call was entered for `C=C1C(=O)O[C@H]2[C@H]1CC/C(COC(=O)/C=C\C(=O)NCc1ccc(Cn3c(=O)sn(CCCC)c3=O)cc1)=C\CC[C@@]1(C)O[C@@H]21` ?
Result: N

Task: Please state the recorded outcome for this compound: O=C(CSC1CCc2ccccc21)N/N=C/c1ccccc1O (stereo unspecified)
Result: N

----------
System: SF-539 CNS
protocol: NCI tumour cell line growth inhibition, 48 h
Catalogue of TGI readings, one per entry.
Please reply with the bare figure in µM and do not write the unit itself.

- Cc1cc(C)nc(NS(=O)(=O)c2ccc(NC(=O)c3cccc4c(Nc5ccc(S(N)(=O)=O)cc5)c5ccccc5nc34)cc2)n1: 20.5

Task: Recall the recorded TGI for `C#COc1cccc(Nc2c(C#N)cnc3ncc(NC(=O)CCl)cc23)c1` with SF-539 CNS and state it.
Result: 37.6

----------
Tested on: K-562 leukemia
protocol: NCI tumour cell line growth inhibition, 48 h
observed.property: GI50

Some solved cases for reference:
- CCn1c(=O)c2c(=O)c3c4c(oc3oc2c2ccccc21)C(=O)c1ccccc1C4=O: 1.73 µM
- CC(C)(S)C(N)C(=O)O (stereo not drawn): 2390 µM

Continue with the next compound.
Task: For the compound shown here, `O=C1NC(=O)C(c2cccc([N+](=O)[O-])c2)=C1Nc1cc(Cl)c(O)c(Cl)c1` , give the reported GI50.
Result: > 25 µM

----------
GI50 values, listed per item
Tested on: OVCAR-8 ovarian
protocol: NCI tumour cell line growth inhibition, 48 h

Task: Bench note: what GI50 did `COc1c[c]([Hg][O]C(C)=O)c(OC)c(NC(=O)CC(C)=O)[c]1[Hg][O]C(C)=O` show?
Result: 6.71 µM

Task: Fill blank: measured GI50 of the compound `CCOC(=O)/C=C(/C)Sc1cc(O)c2ccccc2c1O` is ____.
Result: 2.99 µM

Task: # GI50 lookup, item `CCn1c(=O)c2c(=O)c3c4c(oc3oc2c2ccccc21)C(=O)c1ccccc1C4=O`
Result: 3.3 µM

Task: I would be grateful if you could share the reported GI50 for `CC(=O)[O][Ga]([Br])[O]C(C)=O` .
Result: > 100 µM

Task: What does the data say about its GI50? Entry: `CCN(Cc1ccccc1C)c1ccc(CO)c(Cl)c1`
Result: 15.8 µM

Task: Reported GI50 for `O=S(=O)(Nc1ccc(F)cc1F)c1ccc(-c2cnc(C3CC3)o2)cc1` : what is it?
Result: 1.57 µM

Task: Consider the compound shown here: `O=C1NC(=O)C(c2cccc([N+](=O)[O-])c2)=C1Nc1cc(Cl)c(O)c(Cl)c1` What is its recorded GI50?
Result: > 25 µM

Task: What value of GI50 has been reported for the following compound? CC1=C(C(=O)Nc2ccc(Cl)c(Cl)c2)C(c2cccc(Oc3ccccc3)c2)NC(=O)N1 (stereo not drawn)
Result: 7.67 µM

Task: Which measured GI50 value corresponds to CC(C)(S)C(N)C(=O)O (stereo not drawn) ?
Result: 3450 µM

Task: Reported GI50 for `CC(=O)Oc1ccccc1C(=O)Nc1ncc([N+](=O)[O-])s1` : what is it?
Result: 2.73 µM

Task: // lookup GI50 for `C#COc1cccc(Nc2c(C#N)cnc3ncc(NC(=O)CCl)cc23)c1`
Result: 46 µM

Task: // GI50 lookup, key: `Cc1cc(C)c(NC(=O)c2sc3nc4c(cc3c2N)CN(Cc2ccccc2)CC4)c(C)c1`
Result: 4.72 µM

Task: For the compound shown here, `COc1ncc(-c2ccc3ncnc(Nc4cccc(Cl)c4)c3c2)cc1NS(=O)(=O)C1CC1` , give the reported GI50.
Result: 2.18 µM
